Reported melting point values for a set of molecules

{"columns": ["Molecule", "melting point"],
 "data": [
  ["Cc1ccc(F)cc1C(=O)Nc1ccc(C(=O)N2Cc3cccn3-c3ccccc32)cn1", "190 to 196 °C"],
  ["COC(=O)c1ccc(CCNC(=O)C[C@H]2O[C@H](c3cccc(OC)c3OC)c3cc(Cl)ccc3N(CC(C)(C)CO)C2=O)cc1", "167 to 169 °C"],
  ["O=C(c1ccc(C(F)(F)F)cc1)N1Cc2c(-c3ccc(F)cc3)ncn2-c2ccccc21", "211 to 212 °C"],
  ["CON=C(C(=O)OC)c1ccccc1ON=C(C)c1cccc(C)c1", "90 °C"],
  ["CCOC(=O)C1=C[C@H](O)[C@H](NC(C)=O)[C@@H](N=[N+]=[N-])C1", "51 to 53 °C"],
  ["N#Cc1ccc2nc(C(O)(Cn3cncn3)c3ccc(F)cc3F)sc2c1 (stereo not given)", "170 to 172 °C"]
]}

(Q) melting point lookup needed for CCOc1cc2cc3c(Nc4cc(OC)c(Cl)cc4C)c(C#N)cnc3cc2cc1OCCCl , thanks.
(A) 129 to 130 °C

(Q) And C#CC1(NC(=O)C(CCN2CCN(c3ccccc3OC)CC2)c2ccccc2)CCCCC1 (stereo not given) ?
(A) 127 to 129 °C

(Q) And CCCc1nc2c(N)nc3cc(OCCN4CCCCC4)ccc3c2s1 ?
(A) 141 to 143 °C

(Q) And COC(=O)c1cc(NC(C)=O)c2cc(Cc3ccc(F)cc3)cnc2c1O ?
(A) 243 to 245 °C

(Q) And C=CCc1cc2c(c(CC=C)c1O)N(CC=C)C(=O)CO2 ?
(A) 71 to 73 °C

(Q) And CC(C)(C)OC(=O)NCC(O)c1ccco1 (stereo not given) ?
(A) 89 to 90 °C

(Q) And CC(=O)OC1CSC(Oc2cccnc2Br)C(OC(C)=O)C1OC(C)=O (stereo not given) ?
(A) 161 °C

(Q) And O=c1ncc(Cl)cn1COCc1cccc(C(F)(F)F)c1 ?
(A) 95 °C
